System: HCT-116
protocol: Cytotoxicity against human HCT116 cells after 24 hrs by sulforhodamine B assay
Assay type: functional, cell-based
measurement-context: HCT-116, 24 h
value-type: pIC50
Here pIC50 is given on a logarithmic scale as minus log10 of the concentration in mol/L.

Lab book: pIC50 of "O=C(CCCCCC(c1c[nH]c2ccc([N+](=O)[O-])cc12)c1c[nH]c2ccc([N+](=O)[O-])cc12)NO" noted as 5.92

Reported pIC50 ( "CCc1cccc2c(C(CCCCCC(=O)NO)c3c[nH]c4c(CC)cccc34)c[nH]c12" ) = 5.46

Form: compound = "Cc1[nH]c2ccccc2c1C(CCCCCC(=O)NO)c1c(C)[nH]c2ccccc12" ; pIC50 = 5.49

So, O=C(CCCCCC(c1cc2ccccc2[nH]1)c1c[nH]c2ccccc12)NO (centres undefined) ? Its pIC50 was 6.08

Lab note: "Cn1cc(C(CCCCCC(=O)NO)c2cn(C)c3ccccc23)c2ccccc21" gave pIC50 of 5.18

Documented pIC50 of "O=C(CCCCC(c1c[nH]c2ccccc12)c1c[nH]c2ccccc12)NO" : 5.24

Field pIC50 (entry "COc1cccc2c(C(CCCCCC(=O)NO)c3c[nH]c4c(OC)cccc34)c[nH]c12" ) reads 6.39

The compound "Nc1ccccc1NC(=O)CCCCCC(c1c[nH]c2ccccc12)c1c[nH]c2ccccc12" showed pIC50 equal to 4.78
